biological target: human ERα (Homo sapiens, UniProt P03372); experiment: NF-κB luciferase reporter (ER/NF-KB-luc) in Ad5-wt-hERα infected HAECT-1 cells; details: HAECT1, read-out: ER/NF-KB-luc % E2, efficacy relative to the maximal inhibition observed with E2
observed-property: Emax (%)

[1] Cc1cc(O)ccc1-c1nn(C2CCCC2)c2c(-c3cc4ccccc4s3)cccc12 [Example 266]
[2] Cn1nc(-c2ccc(O)c(O)c2)c2cccc(C(F)(F)F)c21 [Example 176]
1 or 2 : whose Emax is greater? Refer to your chosen item by its label in the answer.
2

[1] CCCCn1nc(-c2ccc(O)cc2)c2cccc(F)c21 [Example 220]
[2] Oc1ccc(-c2nn(Cc3ccccc3)c3ccc(C(F)(F)F)cc23)c(O)c1 [Example 182]
1 or 2 : whose Emax is greater? Refer to your chosen item by its label in the answer.
2
(2: 121%, 1: 84%)

----------
Target: human ERα (Homo sapiens, UniProt P03372)
Sequence (P03372 1-595): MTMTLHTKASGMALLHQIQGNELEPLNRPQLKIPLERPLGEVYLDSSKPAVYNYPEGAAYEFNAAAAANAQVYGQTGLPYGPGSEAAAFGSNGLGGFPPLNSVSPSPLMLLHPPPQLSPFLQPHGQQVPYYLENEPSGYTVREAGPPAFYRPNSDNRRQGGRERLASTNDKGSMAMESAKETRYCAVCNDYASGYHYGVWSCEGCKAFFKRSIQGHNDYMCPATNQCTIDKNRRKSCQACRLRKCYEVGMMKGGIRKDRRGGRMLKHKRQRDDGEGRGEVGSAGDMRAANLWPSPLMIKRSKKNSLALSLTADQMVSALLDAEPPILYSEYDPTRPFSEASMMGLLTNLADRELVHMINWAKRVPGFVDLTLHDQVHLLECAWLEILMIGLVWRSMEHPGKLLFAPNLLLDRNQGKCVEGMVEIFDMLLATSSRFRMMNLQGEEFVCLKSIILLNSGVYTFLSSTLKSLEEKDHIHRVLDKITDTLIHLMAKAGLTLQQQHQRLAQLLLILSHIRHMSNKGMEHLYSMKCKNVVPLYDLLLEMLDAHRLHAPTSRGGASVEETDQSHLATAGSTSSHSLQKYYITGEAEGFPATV
Experiment: NF-κB luciferase reporter (ER/NF-KB-luc) in Ad5-wt-hERα infected HAECT-1 cells
Settings: HAECT1, read-out: ER/NF-KB-luc % E2, efficacy relative to the maximal inhibition observed with E2
observed-property: Emax (%)

Could you tell me which Emax is on file for Oc1ccc(-c2nn(Cc3ccccc3)c3c(C(F)(F)F)cccc23)cc1 ?
65

Could you tell me which Emax is on file for Oc1ccc(-c2nn(CC3CCCCC3)c3c(C(F)(F)F)cccc23)c(O)c1 ?
65

Could you tell me which Emax is on file for CCCCn1nc(-c2ccc(O)cc2)c2ccccc21 ?
67

Could you tell me which Emax is on file for CC(C)n1nc(-c2ccc(O)cc2)c2cccc(-c3ccsc3)c21 ?
87

Could you tell me which Emax is on file for Cc1cc(O)ccc1-c1nn(C(C)C)c2c(C(F)(F)F)cccc12 ?
82

Could you tell me which Emax is on file for Cn1nc(-c2ccc(O)cc2O)c2cc(F)ccc21 ?
95

[A] CCCCC/C=C/c1cccc2c(-c3ccc(O)cc3C)nn(C3CCCC3)c12
[B] CC(C)n1nc(-c2ccc(O)cc2O)c2cccc(Cl)c21
Decide: A or B , by lowest recorded Emax. Refer to your chosen item by its label in the answer.
B

Reference source: patent US7241791B2
